Entry source: patent US12415799B2

method: In vivo pharmacokinetic study in rats
Design: species or system male SD rats
experimentalContext: male, SD, rat, plasma, po, p.o. 2 mg/kg
quantityName: AUC(0-t) (µM·h)
Kindly provide the numeric value in µM·h only, without the unit symbol.

Lab note: measured AUC(0-t) of FCCCN1CC(Nc2ccc(C3=C(CC(F)(F)F)CCCc4c3ccc3[nH]nc(F)c43)nc2)C1 was 0.24

* * *

method: In vivo pharmacokinetic study in mice
Design: species or system female Balb/c mice
experimentalContext: p.o. 10 mg/kg
quantityName: Cmax (nM)
Please state the figure in nM; there is no need to write the unit.

Lab book: Cmax of FCCCN1CC[C@H](Nc2cnc(C3=C(CC(F)(F)F)CCCc4c3ccc3[nH]nc(F)c43)cn2)C1 [Compound 11A] noted as 779

* * *

systemUnderTest: CYP1A2 (Homo sapiens (Human))
Sequence (P05177 whole entry): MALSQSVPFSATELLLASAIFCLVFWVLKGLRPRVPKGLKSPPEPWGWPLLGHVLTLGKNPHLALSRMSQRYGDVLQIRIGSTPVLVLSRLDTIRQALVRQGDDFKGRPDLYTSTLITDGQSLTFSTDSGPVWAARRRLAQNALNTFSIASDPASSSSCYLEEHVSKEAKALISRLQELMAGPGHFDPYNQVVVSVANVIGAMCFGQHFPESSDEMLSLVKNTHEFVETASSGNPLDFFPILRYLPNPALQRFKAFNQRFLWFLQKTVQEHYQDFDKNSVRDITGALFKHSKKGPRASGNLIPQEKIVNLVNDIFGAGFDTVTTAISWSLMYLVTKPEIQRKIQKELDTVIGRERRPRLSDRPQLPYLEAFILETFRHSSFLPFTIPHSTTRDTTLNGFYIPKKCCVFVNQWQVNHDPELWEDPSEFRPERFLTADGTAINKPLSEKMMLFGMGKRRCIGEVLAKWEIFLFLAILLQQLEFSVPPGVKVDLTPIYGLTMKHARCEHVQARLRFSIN
Type: in vitro ADME
experimentalContext: human, microsomes, 10 min
Text: Experimental purposes: To test the inhibitory effect of test compound on the activity of human liver microsomal cytochrome P450 isoenzymes (CYP1A2 and CYP3A4) (Corning, Co., Ltd.). […]
pIC50: −log10 of the molar value.
quantityName: pIC50

Worked cases, answers included:
>>> df
                            molecularstring  quantityname  result
0  FCCCN1CC(Nc2cnc(C3=C(CC(F)(F)F)CCOc4c3ccc3[nH]ncc43)cn2)C1         pIC50  < 4.30
1  FCCCN1CC(Nc2ccc(C3=C(CC(F)(F)F)CCCc4c3ccc3[nH]nc(F)c43)nc2)C1         pIC50  < 4.30
2  FCCCN1CC(Nc2ncc(C3=C(CC(F)(F)F)CCCc4c3ccc3[nH]ncc43)cn2)C1         pIC50  < 4.30

Turning now to a further compound:
Briefly, pIC50 measured for N#Cc1cc(C2=C(CC(F)(F)F)CCCc3c2ccc2[nH]nc(F)c32)ncc1NC1CN(CCCF)C1 : 4.32
